Ref: patent US20240299400A1

tested on: GLI1 mRNA expression; assay: RT-qPCR GLI1 mRNA expression in Sufu-KO MEFs; format: cell-based, mouse; details: Mus musculus, Table 6, GLI1 mRNA, Ave ± SEM; read-out: RT-qPCR, IC50 Sufu-KO
pIC50: −log10 of the molar value.
Recorded measurements of pIC50, one per entry

Reference set, count: 2
| MOLECULE | TEST TARGET | pIC50 |
| --- | --- | --- |
| CCN(CC)c1ccc(C(Nc2cccnc2)c2ccc3ccc(C)nc3c2O)cc1 (stereo not drawn) | GLI1 mRNA expression | 5.36 |
| CCN(CC)c1ccc(C(NC)c2cc(C)c3ccc(C)nc3c2O)cc1 (stereo not drawn) | GLI1 mRNA expression | < 4.60 |

[Q] Form field - read-out: pIC50; system: GLI1 mRNA expression; submitted item: CCN(CC)c1ccc(C(Nc2ccncc2)c2ccc3ccc(C)nc3c2O)cc1 (stereo not drawn)
[A] < 4.60

----------
Tested on: DAOY (MB)
Assay: MTS anti-proliferative assay in DAOY cells
Type: cell-based
Conditions: Homo sapiens, Daoy; Table 8, 48 h, mean ± SEM
Method: Cell viability was assessed by MTS proliferation assay kit (Promega) per manufacturer's protocol. Briefly, 2×10^4 cells were plated in a 96-well plate in 100 μL growth medium to make the cell population at ˜80% confluence. After 24 h, 1 μL drug solution was added to each well. DMSO was used as vehicle compound. […] Absorbance at 490 nm was recorded, and the result was analyzed by GraphPad Prism 5. […]
PROPERTY: GI50 (µM)
Lab book: enter the figure in µM, no units written.

[Q] Form field - read-out: GI50; system: DAOY (MB); submitted item: `CCN(CC)c1ccc(CNc2ccccn2)cc1`
[A] 45.2

[Q] # repeat for Cc1ccc2ccc(C(Nc3ccccn3)c3ccc(N4CCCC4=O)cc3)c(O)c2n1 (stereo not drawn)
[A] 25

[Q] # repeat for CCN(CC)c1ccc(C(Nc2ccccn2)c2ccc3cccnc3c2O)cc1 (stereo not drawn)
[A] 8.2

----------
Tested on: GLI1 mRNA expression
Experiment: RT-qPCR GLI1 mRNA expression in ASZ001 BCC cells
Assay type: cell-based, mouse
Details: Table 2, mean ± SEM; read-out: GLI1 mRNA expression, IC50 ASZ001
Method: ASZ001 and Sufu-KO cells were seeded in 96-well plates (10,000/well, 100 μL) and incubated overnight under growth conditions. On the second day, ‘growth’ media was removed and replaced by ‘assay’ media (100 μL). On the third day, cells were treated with a serial dilution of drugs or DMSO for 48 h. mRNA expression was determined through Taqman Fast Cells-to-CT Kit (#4399003) per the manufacturer's instructions. […]
Recorded measurements of pIC50, one per entry
Conceptually, pIC50 converts a concentration in mol/L into minus its log10.

| COMPOUND | pIC50 |
| --- | --- |
| COc1ccc(C(Nc2ccccn2)c2ccc3cccnc3c2O)cc1[N+](=O)[O-] (racemic) | 5.44 |
| CSc1ccc(C(Nc2cc(C)ccn2)c2ccc3cccnc3c2O)cc1 (racemic) | 5.35 |
| Cc1ccnc(NC(c2cccc(Cl)c2Cl)c2ccc3cccnc3c2O)c1 (racemic) | 5.08 |
| COc1ccc(C(Nc2cc(C)ccn2)c2ccc3cccnc3c2O)cc1O (racemic) | 5.15 |
| Cc1ccnc(NC(c2cc(C)ccc2C)c2ccc3cccnc3c2O)c1 (racemic) | 5.66 |
| Oc1c(C(Nc2ccccn2)c2c(F)cccc2Cl)ccc2cccnc12 (racemic) | 5.44 |
| Oc1c(C(Nc2ccccn2)c2ccc(Cl)c(Cl)c2)ccc2cccnc12 (racemic) | 5.55 |

[Q] Item under review: COc1cccc(C(Nc2cc(C)ccn2)c2ccc3cccnc3c2O)c1C (racemic) . Reported pIC50?
[A] 5.24
